assayed.system: MMP-11 (stromelysin-3, mST3) (Mus musculus, UniProt Q02853)
Sequence (Q02853 102-492): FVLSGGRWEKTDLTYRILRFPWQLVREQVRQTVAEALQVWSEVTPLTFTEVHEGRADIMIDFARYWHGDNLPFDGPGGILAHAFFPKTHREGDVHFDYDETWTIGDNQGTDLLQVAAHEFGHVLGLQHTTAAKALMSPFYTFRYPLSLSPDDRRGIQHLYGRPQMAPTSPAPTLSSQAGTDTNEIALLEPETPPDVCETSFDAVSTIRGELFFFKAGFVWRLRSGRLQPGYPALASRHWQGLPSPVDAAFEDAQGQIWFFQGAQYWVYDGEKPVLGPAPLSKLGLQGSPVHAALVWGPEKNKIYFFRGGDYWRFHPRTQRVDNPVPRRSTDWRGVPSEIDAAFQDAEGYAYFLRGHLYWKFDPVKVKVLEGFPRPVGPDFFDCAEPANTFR
test.method.notes: Ki determination with fluorogenic synthetic substrates, recombinant MMP-11
run.parameters: Tris/50 mM HCl buffer, pH 6.8, 10 mM CaCl2, 25° C.; read-out: affinity constant Ki, MMP-11 mST3
pKi: −log10 of the molar value.
Classify on pKi using Low: < 7; Medium: ≥ 7 and < 8; High: ≥ 8

// known answers, use as guide
>>> discrete_label("NC(=O)C(Cc1c[nH]c2ccccc12)NC(=O)C(CCCc1ccccc1)CP(=O)(O)C(Cc1ccccc1)NC(=O)OCc1ccccc1 (single isomer, unassigned) [Compound 15 S II]")
"Medium"
>>> discrete_label("CC(NC(=O)OCc1ccccc1)P(=O)(O)CC(CSCc1ccccc1)C(=O)NC(Cc1c[nH]c2ccccc12)C(N)=O (stereo not drawn) [Compound 11]")
"Medium"

Category of NC(=O)C(Cc1c[nH]c2ccccc12)NC(=O)C(CCCCc1ccccc1)CP(=O)(O)C(Cc1ccccc1)NC(=O)OCc1ccccc1 (stereo not drawn) [Compound 16] , please.
Medium

---

assayed.system: UniProt P22894
Sequence (P22894 101-467): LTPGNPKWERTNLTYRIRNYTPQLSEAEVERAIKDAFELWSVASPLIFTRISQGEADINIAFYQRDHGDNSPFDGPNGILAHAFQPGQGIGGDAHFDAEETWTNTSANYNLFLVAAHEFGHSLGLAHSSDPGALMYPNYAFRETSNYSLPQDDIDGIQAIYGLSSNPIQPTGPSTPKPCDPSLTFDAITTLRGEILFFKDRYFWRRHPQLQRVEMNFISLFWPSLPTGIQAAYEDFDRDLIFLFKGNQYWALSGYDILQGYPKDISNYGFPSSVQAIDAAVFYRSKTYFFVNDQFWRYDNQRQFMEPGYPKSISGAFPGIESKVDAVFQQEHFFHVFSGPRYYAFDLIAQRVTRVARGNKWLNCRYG
test.method.notes: Ki determination with fluorogenic synthetic substrates, recombinant MMP-8
run.parameters: Tris/50 mM HCl buffer, pH 6.8, 10 mM CaCl2, 25° C.; read-out: affinity constant Ki, MMP-8 HNC
Procedure: The MMPs used were produced in recombinant form, in an E. coli expression system, and then purified using different types of chromatographies. Apart from stromelysin-3 (MMP-11), the MMPs produces correspond to human sequences. […] The activity of each MMP was determined using two fluorogenic synthetic substrates. The cutoff of said substrates, which generates a fluorescent signal proportional to the quantity of split substrate, enables a precise determination of the kinetic parameters. […]
Hi! Could you tag entries with Ki below 5 nM as criterion met, and those at or above as criterion not met? Much appreciated.

>>> discrete_label("CC(C)CC(NC(=O)OCc1ccccc1)C(=O)NC(Cc1ccccc1)P(=O)(O)CC(CCCc1ccccc1)C(=O)NC(Cc1c[nH]c2ccccc12)C(N)=O (stereo not shown) [Compound 35]")
"criterion not met"

Attention now turns to another entry.
A record lists NC(=O)C(Cc1c[nH]c2ccccc12)NC(=O)C(CCCc1ccccc1)CP(=O)(O)C(Cc1ccccc1)NC(=O)OCc1ccccc1 (single isomer, unassigned) [Compound 15 S I] . Is its Ki below 5 nM?
criterion not met

---

assayed.system: MMP-2 (Gel-A) (Homo sapiens, UniProt P08253)
Sequence (P08253 110-660): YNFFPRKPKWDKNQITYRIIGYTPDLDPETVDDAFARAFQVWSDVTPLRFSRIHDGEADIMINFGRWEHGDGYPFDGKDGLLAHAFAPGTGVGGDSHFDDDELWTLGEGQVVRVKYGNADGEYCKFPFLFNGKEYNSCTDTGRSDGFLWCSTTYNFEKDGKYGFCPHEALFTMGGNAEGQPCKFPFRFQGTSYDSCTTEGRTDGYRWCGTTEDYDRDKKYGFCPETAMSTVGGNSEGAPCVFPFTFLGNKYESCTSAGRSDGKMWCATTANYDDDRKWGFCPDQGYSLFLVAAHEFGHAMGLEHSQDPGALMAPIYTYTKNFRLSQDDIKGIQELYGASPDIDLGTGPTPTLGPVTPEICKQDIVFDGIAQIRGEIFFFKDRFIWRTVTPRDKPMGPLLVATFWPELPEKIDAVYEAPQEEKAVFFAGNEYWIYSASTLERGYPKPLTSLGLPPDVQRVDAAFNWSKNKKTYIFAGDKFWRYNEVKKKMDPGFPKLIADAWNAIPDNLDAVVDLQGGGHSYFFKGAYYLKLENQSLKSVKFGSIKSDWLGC
test.method.notes: Ki determination with fluorogenic synthetic substrates, recombinant MMP-2
run.parameters: Tris/50 mM HCl buffer, pH 6.8, 10 mM CaCl2, 25° C.; read-out: affinity constant Ki, MMP-2 Gel-A
Protocol: The MMPs used were produced in recombinant form, in an E. coli expression system, and then purified using different types of chromatographies. Apart from stromelysin-3 (MMP-11), the MMPs produces correspond to human sequences. […] The activity of each MMP was determined using two fluorogenic synthetic substrates. The cutoff of said substrates, which generates a fluorescent signal proportional to the quantity of split substrate, enables a precise determination of the kinetic parameters. […]
readout.label: pKi
# pKi: negative log10 of molar concentration; output just the value

>>> test_result("NC(=O)C(Cc1c[nH]c2ccccc12)NC(=O)C(CCCc1ccccc1)CP(=O)(O)C(Cc1ccccc1)NC(=O)c1cc2c(Cl)cc(Cl)cc2[nH]1 (centres unmarked)")
7.62
>>> test_result("CC(C)CC(CP(=O)(O)C(Cc1ccccc1)NC(=O)OCc1ccccc1)C(=O)NC(Cc1c[nH]c2ccccc12)C(N)=O (centres unmarked)")
6.69
>>> test_result("NC(=O)C(Cc1c[nH]c2ccccc12)NC(=O)C(CCCc1ccccc1)CP(=O)(O)C(Cc1ccccc1)NC(=O)OCc1ccccc1 (single isomer, unassigned) [Compound 15 R I, ZPheΨ(PO2CpH2)pPheTrpNH2]")
7.27
>>> test_result("CC(NC(=O)OCc1ccccc1)P(=O)(O)CC(Cc1ccccc1)C(=O)NC(Cc1c[nH]c2ccccc12)C(N)=O (centres unmarked)")
6.60

Entry under test: NC(=O)C(Cc1c[nH]c2ccccc12)NC(=O)C(CCCc1ccccc1)CP(=O)(O)C(Cc1ccccc1)NC(=O)OCc1ccccc1 (single isomer, unassigned) [Compound 15 R II] . Its pKi was 7.38

Entry under test: CC(NC(=O)OCc1ccccc1)P(=O)(O)CC(CCc1ccccc1)C(=O)NC(Cc1c[nH]c2ccccc12)C(N)=O (centres unmarked) . Its pKi was 7.10

Entry under test: NC(=O)C(Cc1c[nH]c2ccccc12)NC(=O)C(CCCc1ccccc1)CP(=O)(O)C(Cc1ccccc1)NC(=O)CNc1ccccc1 (centres unmarked) . Its pKi was 7.77

Entry under test: NC(=O)C(Cc1c[nH]c2ccccc12)NC(=O)C(CCCCc1ccccc1)CP(=O)(O)C(Cc1ccccc1)NC(=O)OCc1ccccc1 (centres unmarked) . Its pKi was 6.84

Entry under test: CC(NC(=O)OCc1ccccc1)C(=O)NC(Cc1ccccc1)P(=O)(O)CC(CCCc1ccccc1)C(=O)NC(Cc1c[nH]c2ccccc12)C(N)=O (centres unmarked) . Its pKi was 7.96

---

assayed.system: MMP-1 (HFC) (Homo sapiens, UniProt P03956)
Construct: made in house; host or cells: E. coli
Sequence (P03956 100-469): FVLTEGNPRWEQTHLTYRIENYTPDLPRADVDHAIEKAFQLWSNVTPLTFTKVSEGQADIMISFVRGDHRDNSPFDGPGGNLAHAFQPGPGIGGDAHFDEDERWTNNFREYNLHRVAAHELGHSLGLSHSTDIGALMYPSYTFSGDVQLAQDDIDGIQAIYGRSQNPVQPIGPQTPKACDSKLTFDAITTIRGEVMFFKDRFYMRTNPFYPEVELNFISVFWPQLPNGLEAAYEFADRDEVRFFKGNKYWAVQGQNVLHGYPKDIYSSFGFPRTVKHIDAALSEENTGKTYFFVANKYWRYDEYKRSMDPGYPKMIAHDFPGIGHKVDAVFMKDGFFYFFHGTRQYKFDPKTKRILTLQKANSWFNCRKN
test.method.notes: Ki determination with fluorogenic synthetic substrates, recombinant MMP-1
Assay type: biochemical
run.parameters: @ 1 μM inhibitor; read-out: percentage of inhibition, MMP-1
readout.label: inhibition at 1 µM (%)
Answer with a number only, understood to be in %.

>>> test_result("NC(=O)C(Cc1c[nH]c2ccccc12)NC(=O)C(CCCc1ccccc1)CP(=O)(O)C(Cc1ccccc1)NC(=O)CNc1cc(Cl)ccc1O (centres unmarked)")
55
>>> test_result("NC(=O)C(Cc1c[nH]c2ccccc12)NC(=O)C(CCCc1ccccc1)CP(=O)(O)C(Cc1ccccc1)NC(=O)COCc1ccccc1 (centres unmarked)")
28
>>> test_result("NC(=O)C(Cc1c[nH]c2ccccc12)NC(=O)C(CCCc1ccccc1)CP(=O)(O)C(Cc1ccccc1)NC(=O)CNc1cccc(Cl)c1 (centres unmarked)")
63
>>> test_result("CC(NC(=O)OCc1ccccc1)C(=O)NC(Cc1ccccc1)P(=O)(O)CC(CCCc1ccccc1)C(=O)NC(Cc1c[nH]c2ccccc12)C(N)=O (centres unmarked)")
24
>>> test_result("NC(=O)C(Cc1c[nH]c2ccccc12)NC(=O)C(CCCc1ccccc1)CP(=O)(O)C(Cc1ccccc1)NC(=O)c1ccc2ccccc2n1 (centres unmarked)")
78

Readout inhibition at 1 µM for CC(=O)NC(Cc1ccccc1)P(=O)(O)CC(CCCc1ccccc1)C(=O)NC(Cc1c[nH]c2ccccc12)C(N)=O (centres unmarked) , test system MMP-1 (HFC) (Homo sapiens, UniProt P03956), was 29

Readout inhibition at 1 µM for NC(=O)C(Cc1c[nH]c2ccccc12)NC(=O)C(CCCc1ccccc1)CP(=O)(O)C(Cc1ccccc1)NC(=O)c1cc2ccccc2[nH]1 (centres unmarked) , test system MMP-1 (HFC) (Homo sapiens, UniProt P03956), was 87

Readout inhibition at 1 µM for CC(C)CC(NC(=O)OCc1ccccc1)C(=O)NC(Cc1ccccc1)P(=O)(O)CC(CCCc1ccccc1)C(=O)NC(Cc1c[nH]c2ccccc12)C(N)=O (centres unmarked) , test system MMP-1 (HFC) (Homo sapiens, UniProt P03956), was 20

---

Listed molecules paired with reported Ki
assayed.system: UniProt Q02853
test.method.notes: Ki determination with fluorogenic synthetic substrates, recombinant MMP-11
run.parameters: Tris/50 mM HCl buffer, pH 6.8, 10 mM CaCl2, 25° C.; read-out: affinity constant Ki, MMP-11 mST3
Answer with a number only, understood to be in nM.

Sample answers from the record:
>>> test_result("NC(=O)[C@H](Cc1c[nH]c2ccccc12)NC(=O)C(CCCc1ccccc1)CP(=O)(O)C(Cc1ccccc1)NC(=O)OCc1ccccc1 (mixture of isomers) [Compound 15, ZPheΨ(PO2CpH2)pPheTrpNH2]")
5
>>> test_result("COc1ccc(CSCC(CP(=O)(O)C(Cc2ccccc2)NC(=O)OCc2ccccc2)C(=O)NC(Cc2c[nH]c3ccccc23)C(N)=O)cc1 (stereo not drawn) [Compound 18]")
2
>>> test_result("CC(CP(=O)(O)C(Cc1ccccc1)NC(=O)OCc1ccccc1)C(=O)NC(Cc1c[nH]c2ccccc12)C(N)=O (stereo not drawn) [Compound 12]")
2670
>>> test_result("NC(=O)C(Cc1c[nH]c2ccccc12)NC(=O)C(CCCc1ccccc1)CP(=O)(O)C(Cc1ccccc1)NC(=O)OCc1ccccc1 (single isomer, unassigned) [Compound 15 R I, ZPheΨ(PO2CpH2)pPheTrpNH2]")
6
>>> test_result("NC(=O)C(Cc1c[nH]c2ccccc12)NC(=O)C(CCCc1ccccc1)CP(=O)(O)C(Cc1ccccc1)NC(=O)c1cc2cc(Cl)cc(Cl)c2oc1=O (stereo not drawn) [Compound 33]")
5

Entry under test: CC(NC(=O)OCc1ccccc1)P(=O)(O)CC(CCCc1ccccc1)C(=O)NC(Cc1c[nH]c2ccccc12)C(N)=O (stereo not drawn) [Compound 9] . Its Ki was 100

Entry under test: CC(C)CC(NC(=O)OCc1ccccc1)C(=O)NC(Cc1ccccc1)P(=O)(O)CC(CCCc1ccccc1)C(=O)NC(Cc1c[nH]c2ccccc12)C(N)=O (stereo not drawn) [Compound 35] . Its Ki was 6

Entry under test: CC(C)CC(CP(=O)(O)C(Cc1ccccc1)NC(=O)OCc1ccccc1)C(=O)NC(Cc1c[nH]c2ccccc12)C(N)=O (stereo not drawn) [Compound 13] . Its Ki was 22

Entry under test: CC(NC(=O)OCc1ccccc1)P(=O)(O)CC(Cc1ccccc1)C(=O)NC(Cc1c[nH]c2ccccc12)C(N)=O (stereo not drawn) [Compound 7] . Its Ki was 350
